The measurements presented in this section are drawn from ChEMBL document CHEMBL1201862.

Test system: NCI-H522
experiment: NCI tumour cell line growth inhibition, 48 h
Active and inactive are the calls of the source. Cut-off read from the data, not from the text of the source: active = GI50 up to about 1.1 µM and inactive = higher.
Below: a set of entries, each annotated with reported GI50.

molecule	GI50
Nn1c(CCCCCCCCc2nnc(COc3ccccc3)n2N)nnc1COc1ccccc1	> 100 µM (inactive)
O=C(/C=C/c1ccc(O)c(O)c1)c1ccc(O)cc1O	2.25 µM (inactive)
O=C1[C@@H](c2ccc(Cl)cc2)[C@H]2CC=C[C@H]2N1O	71.1 µM (inactive)
CCc1ccc(CCC(=O)O)nc1	> 100 µM (inactive)
O=C1C(c2c(O)[nH]c3ccc(Cl)cc23)=Nc2ccccc21	10.6 µM (inactive)
CCCCNCCCNCCCNC(=O)c1csc(-c2csc(CCNC(=O)C(NC(=O)C(C)C(O)C(C)NC(=O)C(NC(=O)c3nc(C(CC(N)=O)NCC(N)C(N)=O)nc(N)c3C)C(OC3OC(CO)C(O)C(O)C3OC3OC(CO)C(O)C(OC(N)=O)C3O)c3c[nH]cn3)C(C)O)n2)n1 (stereo unspecified)	0.791 µM (active)
COc1cc(/C=C/C(=O)Oc2ccccc2)ccc1C(=O)O/C=C/c1ccccc1	> 100 µM (inactive)
COc1cc([C@@H]2OC(=O)C3C2C(=O)O[C@H]3c2cc(OC)c(OC)c(OC)c2)cc(OC)c1OC (stereo partly specified)	> 100 µM (inactive)
C=C1C(=O)O[C@@H]2[C@H]1CCC(C)=C1C=CC(=O)[C@]12C	2.42 µM (inactive)
CC(=O)O[C@]1(C)OC(=O)[C@@H](C)N1[N+](=O)[O-]	> 100 µM (inactive)
COC(=O)c1ccc(NC(=O)c2cc3c(cc2Br)OCO3)o1	15.7 µM (inactive)
ON=C1CCC(c2ccccc2)CC1 (stereo unspecified)	> 100 µM (inactive)
CCC(=O)N1C(=S)SC[C@H]1C(=O)OC	> 100 µM (inactive)
O=C(Nc1cccc(NC(=O)C(=O)C2CCC3=C(Sc4ccccc4N3)C2=O)n1)C(=O)C1CCC2=C(Sc3ccccc3N2)C1=O (stereo unspecified)	74.6 µM (inactive)
O=P1(Oc2ccccc2)N(CCCl)CCN1c1ccccc1 (stereo unspecified)	> 100 µM (inactive)
Cc1ccc(NC(=O)C2C3C=CC(O3)C2C(=O)O)cc1 (stereo unspecified)	> 100 µM (inactive)
CN(C)CCNC(=O)c1cccc2ncc(-c3ccccc3)nc12	5.78 µM (inactive)
CC(CN(C)C)/C(=N\Nc1ccccc1)c1ccccc1 (stereo unspecified)	0.889 µM (active)
COc1cc(C2SC(C)C(=O)N2c2ccc(-c3csc(NS(=O)(=O)c4ccc(Cl)c(OC)c4)n3)cc2)ccc1O (stereo unspecified)	21.7 µM (inactive)
Cc1cc(Cl)ccc1NC(=O)CC1SC(N)=NC1=O (stereo unspecified)	> 100 µM (inactive)
O=C1OC2(c3ccccc3Oc3ccccc32)c2ccccc21	69.8 µM (inactive)
O=C(O)c1ccc(C2COc3ccc(Cl)cc3C2)cc1 (stereo unspecified)	> 100 µM (inactive)
CC(=O)OC12c3ccccc3-c3ccccc3C1C(C(=O)O)C2C(=O)O (stereo unspecified)	> 10 µM (inactive)
COC(=O)c1cc2c(nc1C)-c1ccccc1OS2(=O)=O	> 100 µM (inactive)
CN1CCC(=O)/C(=C/c2ccccc2)C1	8.95 µM (inactive)
CC(=O)Oc1ccc2cc(Oc3ccc(Cl)cc3)c(=O)oc2c1	22.3 µM (inactive)

* * *

Test system: Hs-578T
experiment: NCI tumour cell line growth inhibition, 48 h
Active and inactive are the calls of the source. Rule as the data show it: active = GI50 up to about 1.1 µM and inactive = higher.
Below: a set of entries, each annotated with reported GI50.
readout: GI50

> print(dat)
                                   molecule       measured.value
1             C/C(Nc1ccc(Cl)cc1)=C1/CCOC1=O  > 100 µM (inactive)
2           Cc1nnc(N)nc1/C=C\c1ccc(Cl)cc1Cl   29.2 µM (inactive)
3  COc1ccc2c3c1O[C@H]1C(OC)C=CC4C(C2)N(Cc2cccs2)CCC341 (stereo not given in full)  > 100 µM (inactive)
4      N#CCN1CCN(CC#N)CCN(CC#N)CCN(CC#N)CC1  > 100 µM (inactive)
5  COc1cc(C=O)cc(/C=N/n2c3ccccc3c3ccccc32)c1O   6.81 µM (inactive)

* * *

Tested on: LXFL 529
experiment: NCI tumour cell line growth inhibition, 48 h
Active and inactive are the calls of the source. No stated cut-off is given here; in the data, active = GI50 up to about 1.1 µM and inactive = higher.
readout: GI50

> print(dat)
                                    compound       measured.value
 1  COC1CC(C)C(OC)C2=CC(=O)C=C(NC(=O)/C(C)=C/C=C\C(C)C(OC(N)=O)/C(C)=C\C(C)C1OC)C2=O (centres undefined)    0.191 µM (active)
 2  COC1C(CO)OC(n2c3c(Cl)cccc3c3c4c(c5c6cccc(Cl)c6[nH]c5c32)C(=O)NC4=O)C(O)C1O (centres undefined)     0.33 µM (active)
 3    CC(=O)C1CC=C(C)CC1 (centres undefined)  > 100 µM (inactive)
 4  O=C(Nc1ccc(Cl)cc1)NS(=O)(=O)c1ccc2c(c1)CCC2   31.5 µM (inactive)
 5  CC1(C)C(c2ccccc2)C12CCC1(C2=O)C(c2ccccc2)C1(C)C (centres undefined)   31.5 µM (inactive)
 6          Cc1ccc(SCC(=O)C2=C(O)CCCC2=O)cc1  > 100 µM (inactive)
 7  O=C1C=CC(CC(=O)c2ccc3ccccc3c2)O1 (centres undefined)   18.4 µM (inactive)
 8  Cc1cc(Cl)ccc1NC(=O)CC1SC(N)=NC1=O (centres undefined)  > 100 µM (inactive)
 9  CCOC1(COP(=O)(OCc2ccccc2)OCc2ccccc2)COC(COP(=O)(OCc2ccccc2)OCc2ccccc2)(OCC)CO1 (centres undefined)  > 100 µM (inactive)
10               CN1CCC(=O)/C(=C/c2ccccc2)C1   6.32 µM (inactive)
11  COc1cc(C2c3cc4c(cc3[C@@H](Nc3ccc(N)cc3)C3COC(=O)[C@H]23)OCO4)cc(OC)c1O (some centres undefined)   8.59 µM (inactive)
12  O=C(Nc1ccc(Cl)cc1Cl)C(=O)C(C(=O)c1ccc2ccccc2c1)C1OC(=O)c2ccccc21 (centres undefined)   3.33 µM (inactive)
13      O=C1c2cccc(O)c2C(=O)c2c(O)cc(CO)cc21     56 µM (inactive)
14  CCN(CC)CCOC(=O)/C(=C/c1ccc(OC)cc1)c1cc(OC)c(OC)c(OC)c1   5.45 µM (inactive)

* * *

Tested on: ACHN
experiment: NCI tumour cell line growth inhibition, 48 h
Activity calls are given as the source filed them. Cut-off read from the data, not from the text of the source: active = GI50 up to about 1.1 µM and inactive = higher.
readout: GI50

molecule	readout	measured.value
CC1=Nc2c(N)nc(N)nc2N(C)C1	GI50	> 100 µM (inactive)
N#CCCC[Si]12OCCN(CCO1)CCO2	GI50	> 100 µM (inactive)
Cc1cc(Cc2cc(C)c(NC(=O)C(=O)C3CCC4=C(SC5C=CC=CC5N4)C3=O)c(C(C)C)c2)cc(C(C)C)c1NC(=O)C(=O)C1CCC2=C(SC3C=CC=CC3N2)C1=O (stereo not drawn)	GI50	62.4 µM (inactive)

* * *

Test system: M14
experiment: NCI tumour cell line growth inhibition, 48 h
Activity calls are given as the source filed them. Cut-off read from the data, not from the text of the source: active = GI50 up to about 1.1 µM and inactive = higher.
Labels: 1 (active), -1 (inactive)

compound	target.entity	category.label
O=C(/C=C/c1ccccc1O)c1cccc2ccccc12	M14	-1
CCC/C=C\C=C\C1(NS(=O)(=O)c2ccc(C)cc2)CCC(C(C)(C)C)CC1 (configuration not stated)	M14	-1
CC(=O)O[C@H]1CSC[C@@H](OC(C)=O)C1[N+](=O)[O-] (some centres not stated)	M14	-1
COc1ccc(CSCc2cc(OC)c(OC)c(OC)c2)cc1	M14	-1
Cc1c(C)c2ccc(OCC(O)COC(C)C)c(C)c2oc1=O (configuration not stated)	M14	-1
Nn1c(CCCCCCCCc2nnc(COc3ccccc3)n2N)nnc1COc1ccccc1	M14	-1
Fc1nc(Sc2ncnc3nc[nH]c23)nc(-c2c3ccccc3c3sc4ccccc4n23)n1	M14	-1
CC(=O)Oc1ccc2c(c1)Oc1cc(C(C)=O)ccc1C21OC(=O)c2ccccc21 (configuration not stated)	M14	-1
COc1cccc(/C=C2\S/C(=N/Nc3nc(-c4ccc([N+](=O)[O-])cc4)cs3)NC2=O)c1O	M14	-1
Cc1cn(C2OC(CO[Si](C)(C)C(C)(C)C)/C(=C\C#N)C2O[Si](C)(C)C(C)(C)C)c(=O)[nH]c1=O (configuration not stated)	M14	-1
CCOC(=O)C(=O)Nc1ccc(C)c(C)c1	M14	-1
C/C=C(\C)C(=O)OC1CC(OC(C)=O)C2(C(=O)OC)COC3C2C1(C)C1C2(C(=O)OC)OCC1(C3O)C1(O)C3CC(C4(O)C=COC4O3)C1(C)O2 (configuration not stated)	M14	-1
N#CCN1CCN(CC#N)CCN(CC#N)CCN(CC#N)CC1	M14	-1
O=[N+]([O-])C(=C(Nc1ccccc1)Nc1ccccc1)C(Cl)=C(Cl)Cl	M14	-1
N=c1nc(N)c2cc3c(N)nc(=N)c3cc12	M14	-1
c1ccc(CCN2CCCCCC2)nc1	M14	-1
Cc1c(/C=N/NC(=O)c2ccc(Cl)cc2)c(=O)n(-c2ccccc2)n1C	M14	-1
O=C(O)c1cc(-c2ccc3c(O)ccc(O)c3c2)ccc1O	M14	-1
COC1CC(C)C(OC)C2=CC(=O)C=C(NC(=O)/C(C)=C/C=C\C(C)C(OC(N)=O)/C(C)=C\C(C)C1OC)C2=O (configuration not stated)	M14	1
O=C(Nc1ccc(Cl)cc1)NS(=O)(=O)c1ccc2c(c1)CCC2	M14	-1
C/C(=N/NC(=S)NCCc1ccccn1)c1cnccn1	M14	-1
CC(=O)CC(=O)CCCC(=O)Nc1ccc(Cl)cc1Cl	M14	-1
